src = patent US20030203908A1

# Ki values compiled below
biological target: human DHFR (Homo sapiens, UniProt P00374); construct: made in house; host or cells: E. coli M15; experiment: Inhibition of human DHFR (I50-derived Ki); assay type: biochemical; conditions: read-out: Human Ki (I50);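 note: recombinant human DHFR expressed in E. coli and purified by methotrexate affinity chromatography, enzyme activity followed spectrophotometrically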
Sequence (P00374 whole entry): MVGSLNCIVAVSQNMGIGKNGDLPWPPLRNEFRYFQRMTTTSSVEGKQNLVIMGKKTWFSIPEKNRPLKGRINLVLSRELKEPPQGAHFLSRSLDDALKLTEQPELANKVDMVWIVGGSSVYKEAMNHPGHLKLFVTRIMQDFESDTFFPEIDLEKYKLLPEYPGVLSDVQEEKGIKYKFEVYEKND
Put down the number, then write its unit next to it.

NC1=NC(c2cccc(OCc3ccccc3)c2)N(c2cccc(COc3cc(Cl)c(Cl)cc3Cl)c2)C(N)=N1 (centres unmarked) : 22 nM

API: the following record is the query input.
// fetch human DHFR (Homo sapiens, UniProt P00374) Ki for NC1=NC(c2cccc(OCc3ccccc3)c2)N(c2ccc(OCc3ccccc3)cc2)C(N)=N1 (centres unmarked)
319 nM
